Source listed as ChEMBL document CHEMBL3396953.

STUDY SYSTEM: Peroxisome proliferator-activated receptor alpha (Homo sapiens)
ASSAY INFO: Agonist activity at GAL4-DNA binding domain fused human PPARalpha ligand binding domain expressed in human HepG2 cells assessed as receptor transactivation incubated for 20 hrs by luciferase reporter gene assay
Assay type: cell-based
MEASUREMENT SETUP: read-out: EC50
For each of the compounds below, state its pEC50.
Numbers only, as −log10 of the molar value.

COMPOUND | REPORTED METRIC | READOUT NUMBER
O=C(O)C(Cc1ccccc1)Oc1ccc(/C=N/O)cc1 (racemic) | pEC50 | 5.11
O=C(O)C(Cc1ccccc1)Oc1ccc(/C=N/OCCCc2ccccc2)cc1 (racemic) | pEC50 | 5.85

Please look at the items below and tell me pEC50 for each one, in order.
1. O=C(O)C(Cc1ccccc1)Oc1ccc(/C(=N/O)c2ccccc2)cc1 (racemic)
2. C/C(=N\O)c1ccc(OC(Cc2ccccc2)C(=O)O)cc1 (racemic)
3. CCCO/N=C(/c1ccccc1)c1ccc(OC(Cc2ccccc2)C(=O)O)cc1 (racemic)
4. CC(C)O/N=C/c1ccc(OC(Cc2ccccc2)C(=O)O)cc1 (racemic)
5. CCCO/N=C/c1ccc(OC(Cc2ccccc2)C(=O)O)cc1 (racemic)
6. CC(C)CO/N=C/c1ccc(OC(Cc2ccccc2)C(=O)O)cc1 (racemic)
7. O=C(O)[C@H](Cc1ccccc1)Oc1ccc(/C=N/O)cc1
8. CCCCO/N=C/c1ccc(OC(Cc2ccccc2)C(=O)O)cc1 (racemic)

(A)
1: 5.92; 2: 5.28; 3: 6.66; 4: 5.38; 5: 5.14; 6: 5.42; 7: 5.26; 8: 5.41

* * *

STUDY SYSTEM: Peroxisome proliferator-activated receptor alpha (Homo sapiens) (UniProt Q07869)
Sequence (Q07869 whole entry, the tested form may be a part): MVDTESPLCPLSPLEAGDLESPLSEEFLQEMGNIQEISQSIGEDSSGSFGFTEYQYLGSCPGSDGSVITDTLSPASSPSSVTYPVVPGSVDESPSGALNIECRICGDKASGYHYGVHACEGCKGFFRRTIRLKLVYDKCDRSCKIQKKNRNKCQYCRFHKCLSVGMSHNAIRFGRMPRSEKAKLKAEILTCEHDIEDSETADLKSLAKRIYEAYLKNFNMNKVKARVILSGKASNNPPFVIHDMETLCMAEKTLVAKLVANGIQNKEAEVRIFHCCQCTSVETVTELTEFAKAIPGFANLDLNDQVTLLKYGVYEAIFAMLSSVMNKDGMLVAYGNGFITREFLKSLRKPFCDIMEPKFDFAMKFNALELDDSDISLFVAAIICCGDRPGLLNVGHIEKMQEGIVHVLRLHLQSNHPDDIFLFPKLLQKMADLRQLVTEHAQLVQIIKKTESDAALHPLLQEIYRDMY
ASSAY INFO: Agonist activity at GAL4-DNA binding domain fused human PPARalpha ligand binding domain expressed in human HepG2 cells assessed as receptor transactivation incubated for 20 hrs by luciferase reporter gene assay relative to Wy-14,643
Type: cell-based
REPORTED METRIC: Emax

MOLECULE | STUDY SYSTEM | Emax
CO/N=C/c1ccc(OC(Cc2ccccc2)C(=O)O)cc1 (racemic) | Peroxisome proliferator-activated receptor alpha (Homo sapiens) (UniProt Q07869) | 101%
CCCO/N=C(/c1ccccc1)c1ccc(OC(Cc2ccccc2)C(=O)O)cc1 (racemic) | Peroxisome proliferator-activated receptor alpha (Homo sapiens) (UniProt Q07869) | 59%
O=C(O)C(Cc1ccccc1)Oc1ccc(/C=N/OCCCc2ccccc2)cc1 (racemic) | Peroxisome proliferator-activated receptor alpha (Homo sapiens) (UniProt Q07869) | 24%
CCCO/N=C(\c1ccccc1)c1ccc(OC(Cc2ccccc2)C(=O)O)cc1 (racemic) | Peroxisome proliferator-activated receptor alpha (Homo sapiens) (UniProt Q07869) | 24%
O=C(O)C(Cc1ccccc1)Oc1ccc(/C=N/OCCc2ccccc2)cc1 (racemic) | Peroxisome proliferator-activated receptor alpha (Homo sapiens) (UniProt Q07869) | 48%

Please look at the items below and tell me Emax for each one, in order.
1. O=C(O)C(Cc1ccccc1)Oc1ccc(/C=N/O)cc1 (racemic)
2. O=C(O)C(Cc1ccccc1)Oc1ccc(/C=N/OCc2ccccc2)cc1 (racemic)

(A)
["91%", "58%"]

Please look at the items below and tell me Emax for each one, in order.
1. O=C(O)[C@H](Cc1ccccc1)Oc1ccc(-c2ccccc2)cc1
2. O=C(O)C(Cc1ccccc1)Oc1ccc(/C(=N/O)c2ccccc2)cc1 (racemic)
3. CCCO/N=C/c1ccc(OC(Cc2ccccc2)C(=O)O)cc1 (racemic)
4. CCCCO/N=C/c1ccc(OC(Cc2ccccc2)C(=O)O)cc1 (racemic)
5. CC(C)O/N=C/c1ccc(OC(Cc2ccccc2)C(=O)O)cc1 (racemic)
6. CC(C)CO/N=C/c1ccc(OC(Cc2ccccc2)C(=O)O)cc1 (racemic)
7. CCCO/N=C/c1ccc(O[C@@H](Cc2ccccc2)C(=O)O)cc1
8. O=C(O)[C@H](Cc1ccccc1)Oc1ccc(/C=N/O)cc1

(A)
["100%", "78%", "96%", "68%", "63%", "52%", "91%", "98%"]

(Q) Requested field: Emax. Item: C/C(=N\O)c1ccc(OC(Cc2ccccc2)C(=O)O)cc1 (racemic)
(A) 68%
